Test: Clinical pharmacokinetics: plasma CYH33 and I27 by LC/MS/MS
Type: in vivo, human
Conditions: C1D1, 40 mg, 3 h
parameter: CYH33 plasma concentration, mean
I'd appreciate it if you wrote the number followed by its unit.

Name the recorded CYH33 plasma concentration, mean for COC(=O)Nc1cc(C(F)(F)F)c(-c2nc(N3CCOCC3)c3cc(CN4CCN(S(C)(=O)=O)CC4)cn3n2)cn1 [CYH33] . 88.2 ng/mL

* * *

Assay: Clinical pharmacokinetics: plasma CYH33 and I27 by LC/MS/MS
Type: in vivo, human
Settings: human, plasma, oral; CYH33, Cycle 1 Day 1, 10 mg (n = 2); read-out: AUC0-∞, mean (CV%)
parameter: AUC(0-inf) (ng·h/mL)
Answer in ng·h/mL, number only, no unit symbol.

Returns the measured AUC(0-inf) for the input compound. Input: COC(=O)Nc1cc(C(F)(F)F)c(-c2nc(N3CCOCC3)c3cc(CN4CCN(S(C)(=O)=O)CC4)cn3n2)cn1 1090

* * *

Assay: Clinical pharmacokinetics: plasma CYH33 and I27 by LC/MS/MS
Type: in vivo, human
Conditions: C1D1, 1 mg, 2 h
parameter: CYH33 plasma concentration, mean (ng/mL)
Your answer should be a plain number; it is taken to be in ng/mL.

For the molecule shown here, COC(=O)Nc1cc(C(F)(F)F)c(-c2nc(N3CCOCC3)c3cc(CN4CCN(S(C)(=O)=O)CC4)cn3n2)cn1 , give the reported CYH33 plasma concentration, mean. 3.8

* * *

Assay: Clinical pharmacokinetics: plasma CYH33 and I27 by LC/MS/MS
Type: in vivo, human
Conditions: C1D28, 10 mg, 2 h
parameter: CYH33 plasma concentration, mean
Could you give the number and then its unit, please?

For the molecule COC(=O)Nc1cc(C(F)(F)F)c(-c2nc(N3CCOCC3)c3cc(CN4CCN(S(C)(=O)=O)CC4)cn3n2)cn1 , what CYH33 plasma concentration, mean is on record? 77.5 ng/mL

* * *

Test: Clinical pharmacokinetics: plasma CYH33 and I27 by LC/MS/MS
Assay type: in vivo, human
Conditions: C1D28, 5 mg, 24 h
parameter: CYH33 plasma concentration, mean (ng/mL)
A number alone suffices; assume ng/mL.

GET /values?readout=CYH33 plasma concentration, mean&item= COC(=O)Nc1cc(C(F)(F)F)c(-c2nc(N3CCOCC3)c3cc(CN4CCN(S(C)(=O)=O)CC4)cn3n2)cn1 [CYH33] 15.1

* * *

Assay: Clinical pharmacokinetics: plasma CYH33 and I27 by LC/MS/MS
Type: in vivo, human
Details: human, plasma, oral; C1D1, 60 mg, 0.5 h
parameter: concentration at 0.5 h

# query: concentration at 0.5 h of entry COC(=O)Nc1cc(C(F)(F)F)c(-c2nc(N3CCOCC3)c3cc(CN4CCN(S(C)(=O)=O)CC4)cn3n2)cn1 [CYH33] 21.9 ng/mL

* * *

Assay: Clinical pharmacokinetics: plasma CYH33 and I27 by LC/MS/MS
Assay type: in vivo, human
Conditions: human, plasma, oral, 60 mg, CYH33, Cycle 1 Day 28, 60 mg (n=2); read-out: AUC0-24h, mean
parameter: AUC(0-t) (ng·h/mL)
Supply the numeric figure in ng·h/mL, leaving out any unit text.

Form field: reported AUC(0-t) of COC(=O)Nc1cc(C(F)(F)F)c(-c2nc(N3CCOCC3)c3cc(CN4CCN(S(C)(=O)=O)CC4)cn3n2)cn1 [CYH33] 4010

* * *

Experiment: Clinical pharmacokinetics: plasma CYH33 and I27 by LC/MS/MS
Format: in vivo, human
Conditions: human, plasma, oral; C1D28, 5 mg, 0 h
parameter: concentration at 0 h (ng/mL)
Answer in ng/mL, number only, no unit symbol.

What measured concentration at 0 h goes with COC(=O)Nc1cc(C(F)(F)F)c(-c2nc(N3CCOCC3)c3cc(CN4CCN(S(C)(=O)=O)CC4)cn3n2)cn1 [CYH33] ? 15.5

* * *

Test: Clinical pharmacokinetics: plasma CYH33 and I27 by LC/MS/MS
Format: in vivo, human
Conditions: human, plasma, oral; C1D1, 60 mg, 24 h
parameter: concentration at 24 h (ng/mL)
Please state the figure in ng/mL; there is no need to write the unit.

Quick one: concentration at 24 h for COC(=O)Nc1cc(C(F)(F)F)c(-c2nc(N3CCOCC3)c3cc(CN4CCN(S(C)(=O)=O)CC4)cn3n2)cn1 ? 61.4

* * *

Test: Clinical pharmacokinetics: plasma CYH33 and I27 by LC/MS/MS
Assay type: in vivo, human
Details: C1D28, 10 mg, 0.5 h
parameter: CYH33 plasma concentration, mean (ng/mL)
Write the number in ng/mL without appending the unit.

GET /values?readout=CYH33 plasma concentration, mean&item= COC(=O)Nc1cc(C(F)(F)F)c(-c2nc(N3CCOCC3)c3cc(CN4CCN(S(C)(=O)=O)CC4)cn3n2)cn1 [CYH33] 49.9

* * *

Test: Clinical pharmacokinetics: plasma CYH33 and I27 by LC/MS/MS
Format: in vivo, human
Conditions: human, plasma, oral, 60 mg, CYH33, Cycle 1 Day 28, 60 mg (n=2); read-out: Tmax, median
parameter: Tmax (h)
State just the number; it will be interpreted in h.

Given the molecule COC(=O)Nc1cc(C(F)(F)F)c(-c2nc(N3CCOCC3)c3cc(CN4CCN(S(C)(=O)=O)CC4)cn3n2)cn1 [CYH33] , what is its reported Tmax? 2.5

* * *

Assay: Clinical pharmacokinetics: plasma CYH33 and I27 by LC/MS/MS
Assay type: in vivo, human
Details: human, plasma, oral, 5 mg, CYH33, Cycle 1 Day 1, 5 mg (n = 1); read-out: AUC0-24h, mean (CV%)
parameter: AUC(0-t)

I would be grateful if you could share the reported AUC(0-t) for COC(=O)Nc1cc(C(F)(F)F)c(-c2nc(N3CCOCC3)c3cc(CN4CCN(S(C)(=O)=O)CC4)cn3n2)cn1 [CYH33] . 266 ng·h/mL

* * *

Assay: Clinical pharmacokinetics: plasma CYH33 and I27 by LC/MS/MS
Format: in vivo, human
Conditions: human, plasma, oral; C1D28, 30 mg, 0 h
parameter: concentration at 0 h (ng/mL)
Write the answer as a number in ng/mL, unit excluded.

// concentration at 0 h lookup, key: COC(=O)Nc1cc(C(F)(F)F)c(-c2nc(N3CCOCC3)c3cc(CN4CCN(S(C)(=O)=O)CC4)cn3n2)cn1 113

* * *

Test: Clinical pharmacokinetics: plasma CYH33 and I27 by LC/MS/MS
Assay type: in vivo, human
Details: human, plasma, oral, 40 mg, CYH33, Cycle 1 Day 28, 40mg (n=7); read-out: AUC0-24h, mean
parameter: AUC(0-t) (ng·h/mL)
Only the number, expressed in ng·h/mL, is required.

GET /values?readout=AUC(0-t)&item= COC(=O)Nc1cc(C(F)(F)F)c(-c2nc(N3CCOCC3)c3cc(CN4CCN(S(C)(=O)=O)CC4)cn3n2)cn1 [CYH33] 3940

* * *

Experiment: Clinical pharmacokinetics: plasma CYH33 and I27 by LC/MS/MS
Format: in vivo, human
Settings: human, plasma, po, dose range 1–60 mg; read-out: median time to maximum plasma concentration (Tmax)
parameter: Tmax

What does the record list as Tmax for COC(=O)Nc1cc(C(F)(F)F)c(-c2nc(N3CCOCC3)c3cc(CN4CCN(S(C)(=O)=O)CC4)cn3n2)cn1 ? 1 to 4 h

* * *

Assay: Clinical pharmacokinetics: plasma CYH33 and I27 by LC/MS/MS
Format: in vivo, human
Settings: human, plasma, oral, 60 mg, CYH33, Cycle 1 Day 28, 60 mg (n=2); read-out: Cmax, mean
parameter: Cmax (ng/mL)
API: value field is a number in ng/mL; no unit string.

What value of Cmax has been reported for the following compound? COC(=O)Nc1cc(C(F)(F)F)c(-c2nc(N3CCOCC3)c3cc(CN4CCN(S(C)(=O)=O)CC4)cn3n2)cn1 220

* * *

Experiment: Clinical pharmacokinetics: plasma CYH33 and I27 by LC/MS/MS
Assay type: in vivo, human
Settings: human, plasma, oral, 60 mg, CYH33, Cycle 1 Day 1, 60 mg (n = 4); read-out: AUC0-24h, mean (CV%)
parameter: AUC(0-t) (ng·h/mL)
Kindly answer with a numeric value in ng·h/mL, unit omitted.

May I ask what AUC(0-t) has been recorded for COC(=O)Nc1cc(C(F)(F)F)c(-c2nc(N3CCOCC3)c3cc(CN4CCN(S(C)(=O)=O)CC4)cn3n2)cn1 ? 1870

* * *

Assay: Clinical pharmacokinetics: plasma CYH33 and I27 by LC/MS/MS
Assay type: in vivo, human
Conditions: C1D1, 60 mg, 8 h
parameter: CYH33 plasma concentration, mean (ng/mL)
Your answer is read as ng/mL, so omit the unit and give the number.

Entry COC(=O)Nc1cc(C(F)(F)F)c(-c2nc(N3CCOCC3)c3cc(CN4CCN(S(C)(=O)=O)CC4)cn3n2)cn1 [CYH33] has what CYH33 plasma concentration, mean? 96.2
